Below, each of the compounds is paired with its reported pIC50 value.
assay target: P2X7 (UniProt Q99572)
assay info: pIC50 values for P2X7 (Table 1)
Assay type: cell-based
Respond numerically, and do not add a unit to the figure.

// solved cases for pIC50 follow
compound | assay target | pIC50
COc1cc(NC(=O)N2C=CC(=O)C[C@H]2c2ccc(F)cc2)c(Br)cc1C(F)(F)F | P2X7 (UniProt Q99572) | 6.09
O=C1C=CN(C(=O)Nc2cc(F)c(F)cc2Br)C(c2ccc(F)cc2)C1 (stereo not shown) | P2X7 (UniProt Q99572) | 6.43
COC(=O)c1cccc(NC(=O)N2C=CC(=O)C[C@@H]2c2ccc(F)cc2)c1C | P2X7 (UniProt Q99572) | 6.13

Fill in the blank: the reported pIC50 of "Cc1cc2ncccc2cc1NC(=O)N1C=CC(=O)C[C@H]1c1ccc(F)cc1" is ____.
7.35
